Exercise: for every item that follows, state its recorded log10 of TGI.
Tested on: HT29 colon
Test Name: NCI tumour cell line growth inhibition, 48 h
Heads up, the numbers here are log10 of TGI in µM units.

Hey, can you go through the list below and give me log10 of TGI for every item?
1. O=C(CC(O)c1ccncc1)c1ccccc1 (configuration not stated)
2. O=C(Nc1ccccc1)Nn1c(-c2cccs2)nc2ccc(I)cc2c1=O
3. O=C(Nc1ccc(Cl)cc1)c1ccc([N+](=O)[O-])o1
4. O=c1oc2cc(O)ccc2cc1-c1nc2ccccc2s1

Return:
1: 1.93; 2: 1.93; 3: 0.54; 4: 1.93

State the recorded log10 of TGI for every item in the following list.
1. c1ccc2c(c1)CCN1CCc3c([nH]c4ccccc34)C21 (configuration not stated)
2. O=C1c2ccccc2C(=O)c2c1oc(=O)c1ccccc21
3. COc1ccc(N(C)c2nc(Cl)nc3ccn(C)c23)cc1
4. O=c1[nH]cc(N(CCCl)CCCl)c(=O)[nH]1
5. CC(=O)[O-].[Ni].c1ccc(/C(=N\Nc2ccccn2)c2ccccn2)cc1

Return:
[2.00, 1.11, -0.92, 2.49, 1.38]

====

Test system: HT29 colon
Test Name: NCI tumour cell line growth inhibition, 48 h
I'd be grateful if you could share measured TGI for these entries.
Answers are plain numbers, in µM.

smiles_entry=Cc1cc(NCCCCNc2ccnc3cc(Cl)ccc23)nc(Nc2ccc(C(=O)N3CCCC3)cc2)n1 unit_label=µM value=7.8

Kindly review the next compound as well.
Enquiry: GET /values?readout=TGI&system=HT29 colon&item= CCN(CC)CCNc1ccc2ncn3c4c(OC)cccc4c(=O)c1c23
Return: 36.1

====

Test system: COLO 205 colon
Test Name: NCI tumour cell line growth inhibition, 48 h
Readout Kind: TGI (µM)
Numbers only, in µM.

Known TGI results, listed for orientation:
smiles_entry=CN(C)CC(C)(C)C(/C=C/c1ccccc1)=N\Nc1ccccc1 readout_kind=TGI unit_label=µM value=11.3
smiles_entry=O=C1CSC(=S)N1Cc1cccnc1 readout_kind=TGI unit_label=µM value=21.1

Then this compound:
Enquiry: Entry under review: C=C(CN(C)C)C(=O)c1cc(C)ccc1C . Reported TGI?
Return: 3.53

====

Would you kindly list TGI for each of these molecules?
System: OVCAR-3 ovarian
Test Name: NCI tumour cell line growth inhibition, 48 h

As a guide, the following entries are already answered.
molecule=COCOCc1cc(OCc2ccccc2)c(OC)cc1Br readout_kind=TGI value="> 100 µM"
molecule=O=C(Nc1ccc([N+](=O)[O-])cc1C(=O)O)c1ccc([N+](=O)[O-])cc1 readout_kind=TGI value="> 100 µM"
molecule=O=c1[nH]cc(N(CCCl)CCCl)c(=O)[nH]1 readout_kind=TGI value="223 µM"

// below: TGI requested for another molecule
Enquiry: Any idea what its TGI is? The molecule is COc1cccc(C2C(C(=O)O)=C(CO)Oc3cc4c(cc32)OCO4)c1 (centres undefined)
Return: > 100 µM

====

Test system: SK-OV-3 ovarian
Test Name: NCI tumour cell line growth inhibition, 48 h
Readout Kind: TGI (µM)
Give bare numbers, in µM.

Field: example entries. Status: answers known.
smiles_entry=CS(=O)(=O)Nc1cccc(-c2ccc3c(NC(=O)C4CC4)n[nH]c3c2)c1 readout_kind=TGI value=15.7
smiles_entry=O=C1NC(N/N=C/c2ccccc2)=N/C1=C\c1cccs1 readout_kind=TGI value=39.1

Turning now to a further record.
Enquiry: Can you share its TGI? I mean this molecule: CCCC(=O)Nc1cc([N+](=O)[O-])c([N+](=O)[O-])cc1OC
Return: 26.8

====

Record form. Attribute: TGI. Fill in for each entry.
Test system: RXF 393 renal
Test Name: NCI tumour cell line growth inhibition, 48 h

compound=O=C(Nc1cccc([N+](=O)[O-])c1)c1ccc2ccccc2c1O readout_kind=TGI value="> 35.4 µM"

Provide reported TGI for each item, in the same order as listed.
1. CCN(CC)CCNc1ccc2ncn3c4c(OC)cccc4c(=O)c1c23
2. COC(=O)c1cc2c3ccccc3n3c(=O)c4cc5cc(OC)c(N(S(=O)(=O)c6ccc(C)cc6)S(=O)(=O)c6ccc(C)cc6)cc5nc4c(n1)c23
3. O=C(N1CCC(CN=c2cc3n(-c4ccc(Cl)cc4)c4ccccc4nc-3cc2Nc2ccc(Cl)cc2)CC1)N1CC1
4. COc1cc2c3c(n(CCCNC(=O)OCC4c5ccccc5-c5ccccc54)c(=O)c2cc1OC)-c1cc2c(cc1C3=O)OCO2

Return:
1. 11.6 µM
2. 26.1 µM
3. 1.29 µM
4. > 73.9 µM

Dear colleague, could you send me TGI for each of the items below? Thanks.
1. COc1cc(OC)c2cc(C(=O)O)c(=O)oc2c1
2. O/N=C1/CCCCCC1NO (stereo not given)
3. Cc1nc(N)sc1N=Nc1cc(Cl)c([N+](=O)[O-])cc1Cl
4. Cn1c(=O)c2[nH]c(C3CC(=O)CC(c4nc5c([nH]4)c(=O)n(C)c(=O)n5C)N3)nc2n(C)c1=O (stereo not given)
5. COc1cc(CNC(=O)[C@H](Cc2ccc(O)cn2)NC(C)=O)cc(OC)c1

Return:
1. > 100 µM
2. > 100 µM
3. > 100 µM
4. > 100 µM
5. > 100 µM

====

System: NCI/ADR-RES ovarian
Test Name: NCI tumour cell line growth inhibition, 48 h
Consider the following molecules; for each one, report its GI50.

Some entries whose results are on file:
molecule=COc1ccc2c(c1)C(=O)/C(=C/c1ccc([N+](=O)[O-])s1)O2 readout_kind=GI50 value="0.873 µM"
molecule=CCCCCCCCCCCCSC(=NC)NC readout_kind=GI50 value="2.06 µM"
molecule=COc1cc(OC)c2cc(C(=O)O)c(=O)oc2c1 readout_kind=GI50 value="> 100 µM"
molecule=Cc1cc(O)ccc1O readout_kind=GI50 value="23.5 µM"
molecule=COc1cc(Nc2ncc3c(C)nc(-c4cccc(Oc5ccccc5)c4)n3n2)cc(OC)c1OC readout_kind=GI50 value="6.36 µM"
molecule="O=C(NCC(=O)N1CC[C@H](NC2CCC(O)(c3ccc(-c4ncccn4)cn3)CC2)C1)c1cccc(C(F)(F)F)c1 (some centres not stated)" readout_kind=GI50 value="> 100 µM"

Enquiry: Hi! What's the reported GI50 for COC(=O)c1cc2c3ccccc3n3c(=O)c4cc5cc(OC)c(N(S(=O)(=O)c6ccc(C)cc6)S(=O)(=O)c6ccc(C)cc6)cc5nc4c(n1)c23 on NCI/ADR-RES ovarian?
Return: > 100 µM

====

Tested on: BT-549 breast
Test Name: NCI tumour cell line growth inhibition, 48 h; in the data active = GI50 below about 0.43 µM; inactive = the rest
Respond using exactly one of the listed classes: 1 (active), 0 (inactive)

See these solved cases before continuing.
compound=N#Cc1c(NC(=O)c2cccc3ccccc23)sc2c1CCCC2 target_or_test_system="BT-549 breast" category=1
compound=COc1cc(OC)c2cc(C(=O)O)c(=O)oc2c1 target_or_test_system="BT-549 breast" category=0
compound=O=c1[nH]ccc2nc(-c3ccc(CN4CCC(c5nc(-c6ccccn6)n[nH]5)CC4)cc3)c(-c3ccccc3)cc12 target_or_test_system="BT-549 breast" category=0
compound=COc1ccc(/C(=N\O)c2cc(OC)c(OC)c(OC)c2)c(OC)c1N target_or_test_system="BT-549 breast" category=0
compound=CCCCCCCCCCCCSC(=NC)NC target_or_test_system="BT-549 breast" category=0

Now examine the next entry.
Enquiry: Per the assay record, what outcome was assigned to CC(=O)c1c(O)ccc2c(C)c(C(=O)O)oc12 ?
Return: 0

====

Tested on: SK-OV-3 ovarian
Test Name: NCI tumour cell line growth inhibition, 48 h
Would you mind telling me the reported GI50 of each entry?

Some solved cases for reference:
smiles_entry=O=C1/C(=C/c2ccc([N+](=O)[O-])o2)Oc2ccccc21 readout_kind=GI50 value="6.4 µM"
smiles_entry=CC(C)=CCc1ccc(O)c(=O)cc1C(C)C readout_kind=GI50 value="0.903 µM"
smiles_entry=O=C(N1CCC(CN=c2cc3n(-c4ccc(Cl)cc4)c4ccccc4nc-3cc2Nc2ccc(Cl)cc2)CC1)N1CC1 readout_kind=GI50 value="2.25 µM"
smiles_entry=NC(N)=N/N=C(/c1ccccc1)c1ccc(Cl)cc1 readout_kind=GI50 value="39.7 µM"
smiles_entry=COc1cc(-n2cc(-c3ccc(F)cc3)[nH]c2=S)cc(OC)c1OC readout_kind=GI50 value="38.2 µM"

Would you mind giving GI50 for every compound in the list below?
1. CC(C)(C)c1cn2cccc(C(=O)N3CCN(CC(=O)Nc4ccc(Cl)cc4C(=O)c4ccccc4Cl)CC3)c2n1
2. COc1ccc(N(C)c2nc(Cl)nc3ccn(C)c23)cc1
3. O=c1[nH]ccc2nc(-c3ccc(CN4CCC(c5nc(-c6ccccn6)n[nH]5)CC4)cc3)c(-c3ccccc3)cc12
4. O[C@@H]1CCCN1Cc1cc2cc3c(cc2c2cc(OCc4ccccc4)ccc12)OCO3

Return:
1. 27.5 µM
2. < 0.01 µM
3. 0.124 µM
4. 12.2 µM
